molecular target: phosphatase ABI1 via the co-regulator RCAR11/PYR1 (Arabidopsis thaliana, UniProt O49686+P49597); test: In vitro assay: inhibition of the phosphatase ABI1 via the co-regulator RCAR11/PYR1, MUP dephosphorylation, fluorescence; assay type: biochemical; conditions: concentration of 5 mM of the substance in a solution of DMSO and water; MUP dephosphorylation, fluorescence 460 nm
MEASURED METRIC: ABI1 inhibition

In the examples that follow, each entry is paired with its recorded ABI1 inhibition.
COC(=O)/C=C(\C#CC(O)(C(C)C)C1(C#N)CC1)C(F)(F)F (stereo not drawn); +++ (90%>inhibition≥70%)
CCC(C#CC(O)(c1ccc(C)cc1)C1(C#N)CC1)=CC(=O)OC (racemic); ++++ (inhibition≥90%)
CCOC(=O)/C=C(\C#CC(O)(c1ccccc1)C1(C#N)CC1)CC (stereo not drawn); ++++ (inhibition≥90%)
CCC(C=CC(O)(C(CC)CC)C1(C#N)CC1)=CC(=O)OC (racemic); ++++ (inhibition≥90%)
CC/C(C#CC(O)(C1CCCCC1)C1(C#N)CC1)=C/C(=O)OC (stereo not drawn); ++++ (inhibition≥90%)

Fill in: ABI1 inhibition of COC(=O)C=C(C#CC(O)(c1ccc(C)cc1)C1(C#N)CC1)C(F)(F)F (racemic) is ___ +++ (90%>inhibition≥70%)

Give its ABI1 inhibition value. Item: CCOC(=O)C=C(C)C#CC(O)(c1cccc(F)c1)C1(C#N)CC1 (racemic) +++ (90%>inhibition≥70%)

---

Target: phosphatase ABI1 via the co-regulator RCAR11/PYR1 (Arabidopsis thaliana, UniProt O49686+P49597)
Sequence (O49686 1-191): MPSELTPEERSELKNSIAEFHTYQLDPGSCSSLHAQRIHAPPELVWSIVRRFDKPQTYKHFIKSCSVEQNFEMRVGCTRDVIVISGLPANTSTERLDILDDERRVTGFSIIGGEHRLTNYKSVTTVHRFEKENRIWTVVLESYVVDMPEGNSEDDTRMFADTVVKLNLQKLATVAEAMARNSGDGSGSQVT
Sequence (P49597 1-434): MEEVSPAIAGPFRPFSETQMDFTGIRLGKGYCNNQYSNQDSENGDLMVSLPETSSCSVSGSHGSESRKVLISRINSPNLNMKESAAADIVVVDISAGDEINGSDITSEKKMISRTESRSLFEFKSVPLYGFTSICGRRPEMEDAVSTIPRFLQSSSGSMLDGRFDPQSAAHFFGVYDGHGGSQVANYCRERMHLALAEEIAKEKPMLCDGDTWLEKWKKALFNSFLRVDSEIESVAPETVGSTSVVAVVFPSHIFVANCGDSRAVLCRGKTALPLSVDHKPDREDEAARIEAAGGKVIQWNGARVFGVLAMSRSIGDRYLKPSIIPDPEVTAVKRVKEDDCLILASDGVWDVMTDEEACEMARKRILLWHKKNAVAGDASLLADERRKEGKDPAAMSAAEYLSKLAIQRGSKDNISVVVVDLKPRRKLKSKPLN
Assay: In vitro assay: inhibition of the phosphatase ABI1 via the co-regulator RCAR11/PYR1, MUP dephosphorylation, fluorescence
Assay type: biochemical
Conditions: concentration of 5 mM of the substance in a solution of DMSO and water; MUP dephosphorylation, fluorescence 460 nm
MEASURED METRIC: ABI1 inhibition

CC/C(C#CC(O)(C1CC1)C1(C#N)CC1)=C/C(=O)OC (centres unmarked); ++++ (inhibition≥90%)
CCOC(=O)C=C(C)C#CC(O)(c1ccc(C)cc1)C1(C#N)CC1 (racemic); +++ (90%>inhibition≥70%)
CC/C(C#CC(O)(C(C)C)C1(C#N)CC1)=C/C(=O)OC (centres unmarked); ++++ (inhibition≥90%)
CCCOC(=O)C=C(C#CC(O)(c1ccc(C)cc1)C1(C#N)CC1)C(F)(F)F (racemic); +++ (90%>inhibition≥70%)
CCCOC(=O)C=C(C#CC(O)(C(CC)CC)C1(C#N)CC1)C(F)(F)F (racemic); +++ (90%>inhibition≥70%)

Dear colleague, I am looking for the recorded ABI1 inhibition of the following molecule: CCOC(=O)/C=C(/C)C#CC(O)(C1CCCCC1)C1(C#N)CC1 (centres unmarked) ++++ (inhibition≥90%)

Fill in: ABI1 inhibition of CCOC(=O)/C=C(\C#CC(O)(C(C)C)C1(C#N)CC1)CC (centres unmarked) is ___ ++++ (inhibition≥90%)

So what does the record say about ABI1 inhibition for CCC(C=CC(O)(C(C)C)C1(C#N)CC1)=CC(=O)OC (racemic) ? ++++ (inhibition≥90%)

Would you kindly share the measured ABI1 inhibition for COC(=O)/C=C(\C#CC(O)(C1CC1)C1(C#N)CC1)C(F)(F)F (centres unmarked) ? ++++ (inhibition≥90%)

Recorded ABI1 inhibition for CCCOC(=O)/C=C(\C#CC(O)(c1ccccc1)C1(C#N)CC1)CC (centres unmarked) , please? ++++ (inhibition≥90%)

Data origin, for the record: patent US10322995B2
